# PROCEDURE_DETAILS: intravenous toxicity (LD50, survival time) of mecamylamine preparations in mice
# Format: in vivo, male albino mice of the NMRI strain
# TEST_SETTINGS: mouse, in vivo, 1% preparations, fiducial limits at P = 0.05
# From the text: Mecamylamine (3-methylaminoisocamphane hydrochloride) is a ganglion-blocking secondary amine, and as a base, it is an oily liquid which is soluble in lipids. Its toxicity (LD50) after intravenous administration has been estimated in male albino mice of the NMRI strain in accordance with the method of the Nordic Pharmacopoeia. The following preparations were used: Mecamylamine hydrochloride, 1% dissolved in saline Mecamylamine base, dissolved in soybean oil and emulsified in the conventional way. […]
Where a name gives a salt, the structure may show the parent alone.
ATTRIBUTE_MEASURED: LD50 (mg/kg)

COMPOUND: CNC1(C)C2CCC(C2)C1(C)C (stereo not shown) [Mecamylamine HCl, 3-methylaminoisocamphane hydrochloride]
ATTRIBUTE_MEASURED: LD50
ASSAY_RESULT: 16.3

Values from patent USRE32393E
